Test system: SK-OV-3 ovarian
Assay: NCI-60 one-dose screen, 48 h
Settings: 10 µM unless noted
The panel holds about 83,000 compounds, 20% with a hit somewhere; the sample as a whole holds those more often. Activity calls are given as the source filed them. Rule for the calls: active = growth percent below 10; inactive = the rest.
Possible outcomes: yes (1) for active, no (0) for inactive

>  <compound>
CC(C)Cc1ccc(C(C)C(=O)NCc2ccc(Cn3c(=O)sn(-c4ccc(Cl)cc4)c3=O)cc2)cc1 (stereo not drawn)

>  <experimental target>
SK-OV-3 ovarian

>  <classification>
no (0)

$$$$
>  <compound>
COc1ccc(Cl)cc1NC(=O)c1c(NC(=O)C(F)(F)C(F)(F)F)sc2c1CCCCC2

>  <experimental target>
SK-OV-3 ovarian

>  <classification>
yes (1)

$$$$
>  <compound>
Clc1nc(Cl)c2ncn(CCOCCn3cnc4c(Cl)nc(Cl)nc43)c2n1

>  <experimental target>
SK-OV-3 ovarian

>  <classification>
yes (1)

$$$$

----------
Tested on: NCI-H322M lung
Experiment: NCI-60 one-dose screen, 48 h (100 = growth as untreated, 0 = no growth, -100 = all killed)
Conditions: 10 µM unless noted
Procedure: Growth inhibition of the NCI-H322M human Non-Small Cell Lung tumor cell line is measured as a screen for anti-cancer activity. Cells are grown in 96 well plates and exposed to the test compound for 48 hours. Compounds are tested at a single concentration, which is 10^-5 M for most compounds. The reported endpoint is percent growth (GI% or GIPRCNT), where numbers from 0 - 100% represent growth inhibition, and numbers from -100% - 0 represent cell death. […]
Compounds without any hit were thinned out: in the full panel of roughly 83,000, 20% have a hit.
Label scheme for growth: lower than 90% is no (0), 90% and above is yes (1).

>  <compound>
CCn1ccnc1C(=O)/C=C/c1ccc(CC(=O)Nc2ccc(F)cc2)cc1

>  <classification>
no (0)

$$$$
>  <compound>
C/C(=C(/c1ccccc1)c1ccc(OCC(O)CNCCN2CCOCC2)cc1)c1ccccc1 (configuration not stated)

>  <classification>
no (0)

$$$$
>  <compound>
CC(=O)CCSc1ccc(OC(C)=O)cc1

>  <classification>
yes (1)

$$$$
>  <compound>
COc1ccc(CC(C)=C(c2ccc(OCCN(C)C)cc2)c2ccc(OCCN(C)C)cc2)cc1

>  <classification>
no (0)

$$$$
>  <compound>
Clc1nc(Cl)c2ncn(CC3(Cn4cnc5c(Cl)nc(Cl)nc54)COC3)c2n1

>  <classification>
no (0)

$$$$
>  <compound>
CCCC/C(=N\N=C(N)N)c1ccc(F)cc1

>  <classification>
no (0)

$$$$

----------
System: A498 renal
Test: NCI-60 one-dose screen, 48 h
Details: 10 µM unless noted
The panel holds about 83,000 compounds, 20% with a hit somewhere; the sample as a whole holds those more often. The source made the active and inactive calls. Rule for the calls: active = growth percent below 10; inactive = the rest.
Possible outcomes: active, inactive

>  <molecule>
COc1cc2nc(-c3ccc(C#N)cc3)[nH]c(=O)c2cc1OC

>  <classification>
inactive

$$$$
>  <molecule>
COc1ccc(-c2nc(N/N=C/c3c[nH]c4ccccc34)nc(N3CCOCC3)c2C#N)cc1

>  <classification>
inactive

$$$$
>  <molecule>
CCN(CC)CCOC(COc1cc(C)cc(C)c1)COc1cc(C)cc(C)c1

>  <classification>
inactive

$$$$
>  <molecule>
COc1ccc(-c2nc(SC(C)C)nc(NNC(N)=O)c2C#N)cc1

>  <classification>
inactive

$$$$
>  <molecule>
O=C(/C=C\c1ccc(OCCCCCC[P+](c2ccccc2)(c2ccccc2)c2ccccc2)cc1)c1ccc2c(c1)OCCO2

>  <classification>
active

$$$$
>  <molecule>
COc1ccc2nc(N=Nc3c(O)ccc4ccccc34)sc2c1

>  <classification>
inactive

$$$$
>  <molecule>
Cc1ccc(C2CC(c3cccc(Nc4ccncc4)c3)=NN2c2ccccc2)cc1 (centres undefined)

>  <classification>
inactive

$$$$
>  <molecule>
FC(F)(F)c1cccc(Oc2ccc(Nc3ncnc4ccc(OCCCN5CCOCC5)cc34)cc2Cl)c1

>  <classification>
inactive

$$$$
>  <molecule>
CC(C)(C)CC(C)(C)Nc1c(-c2ccc(C(F)(F)F)cc2)nc2cnccn12

>  <classification>
inactive

$$$$
>  <molecule>
O=C1c2ccccc2C(=O)c2c(NCCN=Cc3ccccc3O)cccc21

>  <classification>
inactive

$$$$
>  <molecule>
C[C@]12CCc3nc(Nc4cccc(O)c4)sc3C1=CC[C@@H]1[C@@H]2CC[C@]2(C)/C(=N\NC(N)=S)CC[C@@H]12

>  <classification>
inactive

$$$$
>  <molecule>
CCCCc1ccc(Nc2nnc(SCC(=O)NC(=O)NCC)s2)cc1

>  <classification>
inactive

$$$$
>  <molecule>
Cc1nc2sc(C(=O)Nc3cccc(Br)c3)c(N)c2cc1C(=O)c1ccc(C(F)(F)F)cc1

>  <classification>
inactive

$$$$
>  <molecule>
COc1cc(COC(=O)CCCCC[P+](c2ccccc2)(c2ccccc2)c2ccccc2)c(OC)c2c1OCO2

>  <classification>
inactive

$$$$
>  <molecule>
C=Cc1cc[n+](CCCCCCCCCCCC)cc1

>  <classification>
inactive

$$$$
>  <molecule>
N/C(=N\N=C\c1cc2ccccc2[nH]1)N/N=C/c1cc2ccccc2[nH]1

>  <classification>
inactive

$$$$
>  <molecule>
CSc1nnc2c(=O)n(C)c(=O)n(C)c2n1

>  <classification>
inactive

$$$$
>  <molecule>
C#Cc1cccc(NC(=O)Nc2ccc(NC(=O)CCl)cc2)c1

>  <classification>
inactive

$$$$
>  <molecule>
COc1cc(CNC(=O)CCCCC[P+](c2ccccc2)(c2ccccc2)c2ccccc2)c(OC)c2c1OCO2

>  <classification>
inactive

$$$$
>  <molecule>
c1ccc(C2CC(c3cccc(Nc4ccncc4)c3)=NN2c2ccccc2)cc1 (centres undefined)

>  <classification>
inactive

$$$$
>  <molecule>
COc1ccc(-c2nn(Cc3ccccc3)c3c2-c2oncc2CC3)cc1OC

>  <classification>
inactive

$$$$
>  <molecule>
COc1ccc(Cn2nc3c(c2-c2cc(OC)c(OC)c(OC)c2)-c2oncc2CC3)cc1

>  <classification>
inactive

$$$$
>  <molecule>
COc1ccc(Cl)cc1NC(=O)c1c(NC(=O)C(F)(F)C(F)(F)F)sc2c1CCCCC2

>  <classification>
active

$$$$
>  <molecule>
CCCC1C(C(=O)OCC)=C(N)Oc2cc(O)ccc21 (centres undefined)

>  <classification>
inactive

$$$$
>  <molecule>
Cc1ccc2[nH]c(=S)n(-c3ccc(S(=O)(=O)Nc4ccc(Cl)nn4)cc3)c(=O)c2c1

>  <classification>
inactive

$$$$
>  <molecule>
COc1cc(C2CC(c3cccc(Nc4ccncc4)c3)=NN2c2cc(Cl)cc(Cl)c2)cc(OC)c1OC (centres undefined)

>  <classification>
inactive

$$$$
>  <molecule>
CC1NC(=S)NC(=O)/C1=C/c1cc(=O)oc2c1ccc1ccccc12 (centres undefined)

>  <classification>
inactive

$$$$
>  <molecule>
CCCOc1nc(SCCC)nc2c1cnn2-c1ccccc1

>  <classification>
inactive

$$$$
>  <molecule>
C[C@@H]1CN(Cc2ccc(/C=C/c3n[nH]c4ccc5nc(-c6cn[nH]c6C(F)(F)F)c6c(c5c34)CCCC6)cc2)C[C@H](C)O1

>  <classification>
active

$$$$
>  <molecule>
COC(=O)Nc1nc2ccc(C(=O)c3cccc(I)c3)cc2[nH]1

>  <classification>
active

$$$$
>  <molecule>
CCCCCCCC(=O)Nc1nc2[nH]c(CN3CCN(Cc4cccc(I)c4)CC3)c(CN3CCN(Cc4cccc(I)c4)CC3)c2c(=O)[nH]1

>  <classification>
inactive

$$$$
>  <molecule>
COc1cc(/C=C/C(=O)c2c(C)oc3nc[nH]c(=O)c23)ccc1O

>  <classification>
inactive

$$$$
>  <molecule>
COc1nccnn1

>  <classification>
inactive

$$$$
>  <molecule>
COc1ccc(Cn2nc(-c3cc(OC)c(OC)c(OC)c3)c3c2CCc2cnoc2-3)cc1OC

>  <classification>
inactive

$$$$
